# Test Description: activity coefficient (dimensionless); of the first substance listed, at infinite dilution; xn = mol fraction of the nth substance listed
# Measurement Conditions: 318.15 K; 101.33 kPa; Liquid; Chromatography; x1 = 0
Below is a list of entries, each paired with its recorded activity coefficient value.

These recorded examples may help you get a feel for the data.
[[record]]
compound = "CC(C)c1ccccc1 [isopropylbenzene] + CC[N+]1(C)CCOCC1.N#CN=C=[N-]"
metric_name = "activity coefficient"
recorded_value = 27

[[record]]
compound = "CCOC(C)=O [ethyl acetate] + CC[N+]1(C)CCOCC1.N#CN=C=[N-]"
metric_name = "activity coefficient"
recorded_value = 5.67

[[record]]
compound = "Cc1ccc(C)cc1 [1,4-dimethylbenzene] + CC[N+]1(C)CCOCC1.N#CN=C=[N-]"
metric_name = "activity coefficient"
recorded_value = 13.4

[[record]]
compound = "C1=CCCCC1 [cyclohexene] + CC[N+]1(C)CCOCC1.N#CN=C=[N-]"
metric_name = "activity coefficient"
recorded_value = 50.7

[[record]]
compound = "CC#N [acetonitrile] + CC[N+]1(C)CCOCC1.N#CN=C=[N-]"
metric_name = "activity coefficient"
recorded_value = 0.966

[[record]]
compound = "C1COCCO1 [1,4-dioxane] + CC[N+]1(C)CCOCC1.N#CN=C=[N-]"
metric_name = "activity coefficient"
recorded_value = 1.57


Which value of activity coefficient has been reported for CCC[N+](=O)[O-] [1-nitropropane] + CC[N+]1(C)CCOCC1.N#CN=C=[N-] in the records? 2.29

Param item: CCCc1ccccc1 [propylbenzene] + CC[N+]1(C)CCOCC1.N#CN=C=[N-] 29.2

Cool, now C#CCCCCC [1-heptyne] + CC[N+]1(C)CCOCC1.N#CN=C=[N-] 44.9

Same read-out for CC(C)CO [2-methyl-1-propanol] + CC[N+]1(C)CCOCC1.N#CN=C=[N-] ? 3.01

Now consider CCCCCCCCC [nonane] + CC[N+]1(C)CCOCC1.N#CN=C=[N-] . 1540

Next: CCCO [propan-1-ol] + CC[N+]1(C)CCOCC1.N#CN=C=[N-] 1.85

C=CCCCCC [1-heptene] + CC[N+]1(C)CCOCC1.N#CN=C=[N-] ? 288

// next record c1ccccc1 [benzene] + CC[N+]1(C)CCOCC1.N#CN=C=[N-] 4.46

Another compound: CCCCCO [pentan-1-ol] + CC[N+]1(C)CCOCC1.N#CN=C=[N-] 4.78
